Target: human GPR120 (Homo sapiens, UniProt Q5NUL3)
Construct: expressed in transfected cells; host or cells: HEK293T, transient transfection with PEI
Sequence (Q5NUL3 whole entry): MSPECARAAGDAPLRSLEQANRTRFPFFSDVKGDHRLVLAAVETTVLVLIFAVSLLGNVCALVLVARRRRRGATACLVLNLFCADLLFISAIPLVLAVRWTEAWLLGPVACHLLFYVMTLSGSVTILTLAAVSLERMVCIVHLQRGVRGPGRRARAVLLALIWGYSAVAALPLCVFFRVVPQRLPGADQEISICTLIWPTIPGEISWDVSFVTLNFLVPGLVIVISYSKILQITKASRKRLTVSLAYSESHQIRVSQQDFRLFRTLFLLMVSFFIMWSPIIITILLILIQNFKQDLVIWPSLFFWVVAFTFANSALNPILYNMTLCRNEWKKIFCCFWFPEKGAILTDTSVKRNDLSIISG
Assay: Human GPR120-β Arrestin 2 BRET agonist assay
Format: cell-based
Settings: HEK293T cells transiently co-expressing hGPR120-eYFP and β-arrestin 2-RLuc; BRET normalised to DMSO (0%) and TUG-891 (100%); read-out: hGPR120 pEC50 (converted)
Measured EC50, listed per entry.

COMPOUND	EC50, nM
O=C(O)C1CC1c1ccc2c(c1)CCN(c1cc(OC3CCC3)ccc1F)C2 (single isomer, unassigned) [34 isomer 2]	79.4
O=C(O)C1CC1c1ccc2c(c1)CCN(c1nc(OC3CCC3)ccc1F)C2 (single isomer, unassigned) [37 Isomer 1]	63.1
CC(Cc1ccc2c(c1)CCN(c1cc(OC3CCC3)ccc1F)C2)C(=O)O (racemic)	100
O=C(O)CCc1cc(F)c2c(c1)CCN(c1cc(OC(F)(F)F)ccc1F)C2	31.6
COc1cc(OC(F)(F)F)cc(N2CCc3cc(CCC(=O)O)ccc3C2)c1	63.1
COc1cc(Cl)cc(N2CCc3ccc(CCC(=O)O)cc3C2)c1	2510
O=C(O)CCc1ccc2c(c1)CCN(c1cc(OC3CCC3)ccc1F)CC2	79.4
O=C(O)C1CC1c1ccc2c(c1)CCN(c1cccc(Oc3ccccc3)c1)C2 (single isomer, unassigned) [38 isomer 1]	50.1
O=C(O)CCc1ccc2c(c1)CCN(c1cc(Oc3ccccc3)ccc1F)C2	20
N#Cc1ccc(N2CCc3cc(CCC(=O)O)ccc3C2)cc1	7940
Cc1cc(C)cc(N2CCc3ccc(CCC(=O)O)cc3C2)c1	1580
O=C(O)CCc1cc2c(cc1F)CN(c1cc(F)cc(OC3CCC3)c1)CC2	316
CC(C)Oc1cccc(N2CCc3cc(CCC(=O)O)ccc3C2)c1	501
O=C(O)CCc1ccc2c(c1)CCN(c1nc(OC3CCC3)c(F)cc1F)C2	25.1
O=C(O)CCc1ccc2c(c1)CCN(c1cc(OC3CCC3)ccc1Cl)C2	50.1
O=C(O)CCc1ccc2c(c1)CCN(c1cc(Oc3ccccc3)ccc1F)CC2	25.1
C[C@H](Cc1ccc2c(c1)CCN(c1cc(OC(F)(F)F)ccc1F)CC2)C(=O)O	501
O=C(O)CCc1ccc2c(c1)CCCN(c1cc(OC(F)(F)F)ccc1F)C2	200
COc1ccc(Cl)cc1N1CCc2cc(CCC(=O)O)ccc2C1	1000
O=C(O)C1CC1c1ccc2c(c1)CCN(c1cc(OC3CCC3)ccc1F)C2 (single isomer, unassigned) [34 isomer 1]	158
